The values you see were collected from paper PMC5159881.

# protocol-notes: in vivo
# run-parameters: Sprague-Dawley, rat, in vivo, iv, 1 mg/kg
# Method: Pharmacokinetic studies in vivo[37] and CYP-associated metabolic studies in vitro[56] were performed using the method reported previously in our laboratory. […] The statistical analysis was performed by SPSS 22.0 software. The differences between control group and experimental groups were determined by one-way analysis of variance. […] Data were expressed as mean and s.d., and P<0.05 was considered significant. […]
endpoint: AUC(0-inf) (ng·h/mL)
I only need the number, in ng·h/mL, no unit after it.

Query string: Recorded AUC(0-inf) for C=C1[C@@H](O)[C@]2(O)OC[C@]34[C@H]2[C@@]2(C)[C@H](O)C(=O)C=C(C)[C@@H]2C[C@H]3OC(=O)C[C@@H]14 [AIL, Ailanthone] , please?
Result string: 1030
